Hey, just so you know, these numbers are from PubChem BioAssay.

assayMethodText: antimalarial activity against Dd2 strain (AID 2302);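 note: 0% = DMSO untreated growth and 100% = chloroquine plus artemisinin killed control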
conditionDescription: P. falciparum Dd2 in RBCs, LDH growth readout, 72 h; at 2 µM; stronger effect = higher value
This section presents molecules with their documented growth inhibition values.
resultType: growth inhibition (%)

>>> valueobserved("O=C(NCCCCN1CCC(c2ccc3c(c2O)CCCC3)CC1)c1ccc(NC(=O)c2ccc(Cl)cc2)cc1")
100
>>> valueobserved("Cc1cccc2[nH]c(-c3ccc(-c4cccc(CN5CCC(C(N)=O)CC5)c4)cc3)nc12")
16
>>> valueobserved("COc1ccc2c(c1CNCCCCCCNCc1c(OC)ccc3c1CCCC3)CCCC2")
7
>>> valueobserved("O=C(N[C@@H](Cc1ccccc1)[C@H](O)CNC1CCOCC1)c1cc(C2CCCC2)cc(N2CCCCS2(=O)=O)c1")
98
>>> valueobserved("Cc1cccc(CN2CCC(C(=O)Nc3ccc(-c4nc5ccccc5[nH]4)cc3)CC2)n1")
3

###

assayMethodText: LFS_MB_P medulloblastoma growth inhibition, cell-based, chromothripsis tumors, cisplatin or BGB combos (AID 1671449);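 note: cells exposed for 96 hours; 0% = vehicle DMSO and 100% = killing by high DMSO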
conditionDescription: LFS_MB_P medulloblastoma cells, at 0.5 µM, stronger effect = higher value
resultType: inhibition (%)

>>> valueobserved("O=C(Nc1ccccc1)c1ccccc1O")
-6.1
>>> valueobserved("O=c1ncccn1[C@@H]1O[C@H](CO)[C@@H](O)[C@H]1O")
94.5
>>> valueobserved("CO[C@H]1/C=C/O[C@@]2(C)Oc3c(C)c(O)c4c(O)c(c(C=NN5CCN(C)CC5)c(O)c4c3C2=O)NC(=O)/C(C)=C\\C=C\\[C@H](C)[C@H](O)[C@@H](C)[C@@H](O)[C@@H](C)[C@H](OC(C)=O)[C@@H]1C")
-11
>>> valueobserved("CCc1c2c(nc3ccc(O)cc13)-c1cc3c(c(=O)n1C2)COC(=O)[C@]3(O)CC")
-26

###

system: Calcium-dependent protein kinase 1 (Plasmodium falciparum (isolate 3D7)) (UniProt P62344)
Sequence (P62344 whole entry, looked up): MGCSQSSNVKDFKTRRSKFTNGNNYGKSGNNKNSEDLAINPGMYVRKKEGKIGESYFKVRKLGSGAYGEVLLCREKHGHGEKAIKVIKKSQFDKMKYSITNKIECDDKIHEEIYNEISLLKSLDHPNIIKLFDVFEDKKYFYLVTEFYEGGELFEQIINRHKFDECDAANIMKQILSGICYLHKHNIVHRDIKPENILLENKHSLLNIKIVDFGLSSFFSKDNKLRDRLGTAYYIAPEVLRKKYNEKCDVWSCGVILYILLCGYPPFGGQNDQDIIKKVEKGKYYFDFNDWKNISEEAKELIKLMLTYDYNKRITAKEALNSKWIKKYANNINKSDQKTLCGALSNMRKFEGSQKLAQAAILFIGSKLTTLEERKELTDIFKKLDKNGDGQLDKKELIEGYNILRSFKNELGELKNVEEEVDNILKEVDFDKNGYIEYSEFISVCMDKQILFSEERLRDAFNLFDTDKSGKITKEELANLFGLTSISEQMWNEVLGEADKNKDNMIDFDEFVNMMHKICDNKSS
assayMethodText: PfCDPK1 kinase inhibitors, biochemical, TCAMS library (AID 1159585);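 note: inhibitors leave more ATP so luminescence rises with inhibition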
conditionDescription: recombinant PfCDPK1, Kinase-Glo ATP depletion luminescence
Measured potencies and affinities stand elsewhere. Calls of active or inactive are those of the source. No cut-off is given here; in the data, nearly all actives have IC50 up to about 0.98 µM.
resultType: outcome

>>> valueobserved("c1ccc2c(CNCCCN3CCN(CCCNCc4c5ccccc5cc5ccccc45)CC3)c3ccccc3cc2c1")
"inactive"
>>> valueobserved("CCc1ccc(C2CCN(CCCCNC(=O)c3ccc(-c4ccc(C#N)cc4)cc3)CC2)c(OCCO)c1")
"inactive"
>>> valueobserved("O=C(NCCc1ccccc1)N(Cc1ccccc1-c1cccc(CNCc2ccc3c(c2)OCO3)c1)C1CCN(Cc2ccccc2)CC1")
"inactive"
>>> valueobserved("CCCCN1CCCC[C@H]1[C@@H](O)c1ccnc2ccc(OCC)cc12")
"inactive"
>>> valueobserved("CCc1sc(N2CCN(C)CC2)nc1C(=O)NCCc1ccc(Cl)c(Cl)c1")
"inactive"
>>> valueobserved("Nc1nc(N)c2c(ccc3nn(Cc4ccccc4)cc32)n1")
"inactive"
>>> valueobserved("COc1ccc(NC(=O)/C=C/c2ccccc2Cl)cc1OCCN1CCC(Cc2cc3ccccc3[nH]2)CC1")
"inactive"
>>> valueobserved("CC1CCN(Cc2cccc(C(=O)NCc3ccc(F)c(-c4cccc(CN5CCN[C@@H](C)C5)c4)c3)c2)CC1")
"inactive"
>>> valueobserved("O=C(Cc1cccc(Cl)c1)Nc1cccc(-c2c[nH]c3nc(Nc4cccc(OCc5ccccc5)c4)ncc23)c1")
"inactive"

###

assayMethodText: polyglutamine-triggered caspase-3 activation inhibitors, cell-based (AID 1583)
conditionDescription: polyglutamine-induced caspase-3 activation, cell assay; stronger effect = higher value; concentration not given here
resultType: inhibition (%)

>>> valueobserved("N[C@@H]1[C@@H](O)[C@H](O)[C@@H](CO)O[C@H]1O")
-15.7
>>> valueobserved("C=C1CC[C@H](O)C/C1=C/C=C1\\CCC[C@]2(C)C([C@H](C)/C=C/[C@H](C)C(C)C)CC[C@@H]12 (some centres undefined)")
1.02
>>> valueobserved("CC(=O)Oc1ccc2c(c1)CCC1C2CC[C@@]2(C)C1CC[C@@H]2OC(C)=O (some centres undefined)")
10.6
>>> valueobserved("CC(C)CC1C(=O)N2CCC[C@H]2C2(O)O[C@](NC(=O)C3C=C4c5cccc6[nH]c(Br)c(c56)C[C@H]4N(C)C3)(C(C)C)C(=O)N12 (some centres undefined)")
2.51

###

assayMethodText: suppressors of polyglutamine aggregation in yeast, 75Q-TubH (AID 1616)
conditionDescription: S. cerevisiae 75Q-TubH polyglutamine aggregation suppression; stronger effect = higher value
Quick reference for aggregation suppression score among some compounds
resultType: aggregation suppression score

>>> valueobserved("NC[C@H]1O[C@H](O[C@H]2C(O[C@@H]3O[C@H](CO)[C@@H](O)[C@H]3O)[C@@H](O)[C@H](N)C[C@@H]2N)[C@H](N)[C@@H](O)[C@@H]1O (stereo partly specified)")
0.969
>>> valueobserved("C#C[C@]1(OC(C)=O)CCC2C3CCC4=CC(=O)CC[C@@H]4C3CC[C@@]21C (stereo partly specified)")
0.237
>>> valueobserved("C[C@H]1CC2C([C@@H](O)C[C@@]3(C)C2CC[C@]3(O)C(=O)CO)[C@@]2(C)C=CC(=O)C=C12 (stereo partly specified)")
1.35
>>> valueobserved("COc1ccc(-c2cc(=O)c3c(O)cc(O[C@@H]4O[C@H](CO[C@H]5O[C@H](C)[C@@H](O)[C@H](O)[C@@H]5O)[C@@H](O)[C@H](O)[C@H]4O)cc3o2)cc1O")
1.82
>>> valueobserved("CC(=O)O[C@H]1C(=O)[C@@]2(C)C([C@H](OC(=O)c3ccccc3)[C@]3(O)C[C@H](OC(=O)[C@H](O)[C@@H](NC(=O)c4ccccc4)c4ccccc4)C(C)=C1C3(C)C)[C@]1(OC(C)=O)CO[C@@H]1C[C@@H]2O (stereo partly specified)")
1.25
>>> valueobserved("CN1C2CC(OC(=O)[C@H](CO)c3ccccc3)C[C@H]1[C@H]1OC21 (stereo partly specified)")
1.18

###

assayMethodText: liver-stage malaria parasite growth inhibition, primary screen, cell-based, HepG2, luciferase luminescence, HepG2 viability (AID 624349);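 note: 100% = mean of DMSO negative control wells on the same plate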
conditionDescription: P. berghei liver stage in HepG2, luciferase luminescence, concentration not given here; measured here: HepG2 viability without parasites
resultType: viability (%)

>>> valueobserved("CC12CCC(=O)C=C1CCC1C2CCC2(C)C1CCC2(O)C(=O)CO (centres undefined)")
63.5
>>> valueobserved("O=C1CN(N=Cc2ccc([N+](=O)[O-])o2)C(=O)N1")
54.9
>>> valueobserved("CC1(O)CCOC(=O)C1 (centres undefined)")
107
>>> valueobserved("C/C=C(/C)C(=O)O[C@@H]1[C@H](OC(C)=O)[C@@]2(CO)C(CC1(C)C)C1=CCC3[C@@]4(C)CC[C@H](O[C@@H]5O[C@H](C(=O)O)[C@@H](O[C@@H]6O[C@H](CO)[C@@H](O)[C@H](O)[C@H]6O)[C@H](O)[C@H]5O[C@@H]5O[C@H](CO)[C@@H](O)[C@H](O)[C@H]5O)[C@](C)(CO)C4CC[C@@]3(C)[C@]1(C)C[C@H]2O (some centres undefined)")
87.2

###

assayMethodText: differential killing of epithelial or mesenchymal cells, primary screen, imaging, PC-3E GFP, TEM4-18 mCherry, co-culture (AID 1345086);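 note: cells exposed to compound for 72 h before imaging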
conditionDescription: imaging cell counts, measured here: epithelial PC-3E GFP cell survival, at 1 µM
Sorting guide: entries reporting normalised cell number beneath 1 go in the Criterion met pile, the rest go in the Criterion not met pile.

>>> cat("CC12CCC3c4ccc(O)cc4CCC3C1C[C@H](O)[C@@H]2O (some centres undefined)")
"Criterion met"
>>> cat("CC(=O)O[C@H]1C[C@@]2(C)C(CCC3[C@@]4(C)C=CC(=O)[C@@H](C)C4[C@H](OC(C)=O)C(=O)[C@@]32C)/C1=C(/CCC=C(C)C)C(=O)O (some centres undefined)")
"Criterion met"
>>> cat("COC(=O)C1O[C@H](OCc2ccc(OC)cc2)[C@@H](OC(=O)c2ccccc2)[C@@H](OC(=O)c2ccccc2)C1O (some centres undefined)")
"Criterion not met"
>>> cat("CC(=O)OC1CCC2(C)C3CC(=O)C4(C)C(CC5OC6(CCC(C)CO6)[C@@H](C)C54)C3CC[C@H]2C1 (some centres undefined)")
"Criterion not met"
>>> cat("CC(C)C1=CC2=CCC3[C@](C)(CCC[C@]3(C)C(=O)O)C2CC1 (some centres undefined)")
"Criterion met"
>>> cat("CC(C)CCCC(C)C1CCC2C3CC[C@H]4CCCC[C@]4(C)C3CC[C@]12C (some centres undefined)")
"Criterion not met"
>>> cat("CCCCCCCC/C=C\\CCCCCCCC(=O)O")
"Criterion met"
>>> cat("Nc1ccc2ccccc2c1S(=O)(=O)O")
"Criterion not met"
